- Tested on: SKOV-3 cancer cell lines
- Assay Procedure: SKOV-3 cell viability after treatment with 10 μM test compound
- Format: cell-based
- Measurement Parameters: 10 micromolar test compound, hydrochloride
Structures can show the parent of a compound that is named as a salt.
Measured Parameter: % viability after treatment with 10 micromolar of test compound (SKOV-3 cells)

Molecule: C=CCC1(CC=C)C[C@@H]2OCC[C@H](NC(=O)[C@H](C)NC)C(=O)N2[C@@H]1C(=O)NC(c1ccccc1)c1ccccc1 [Compound 50, hydrochloride]
Experimental Value: B (B=26-50% viability)

Molecule: CN[C@@H](C)C(=O)N[C@H]1CCS[C@H]2CC(C(C)C)(C(C)C)[C@@H](C(=O)N[C@@H]3CCCc4ccccc43)N2C1=O [Compound 41, hydrochloride]
Experimental Value: A (A=0-25% viability)

Molecule: CN[C@@H](C)C(=O)N[C@H]1CCO[C@H]2CC(C(C)C)(C(C)C)[C@@H](C(=O)NC(c3ccccc3)c3ccccc3)N2C1=O [Compound 60, hydrochloride]
Experimental Value: A (A=0-25% viability)

Molecule: CN[C@@H](C)C(=O)N[C@H]1CCS[C@H]2CC(CCc3ccccc3)[C@@H](C(=O)N[C@@H]3CCCc4ccccc43)N2C1=O (some centres unmarked) [Compound 46, hydrochloride]
Experimental Value: B (B=26-50% viability)

* * *

- Test system: SKOV-3 cancer cell lines
- Assay Procedure: SKOV-3 cell viability after treatment with 10 μM test compound
- Type: cell-based
- Measurement Parameters: 10 micromolar test compound, hydrochloride
Counter-ions that a name gives are not always drawn.
Measured Parameter: % viability after treatment with 10 micromolar of test compound (SKOV-3 cells)

Compound: C=CCC1C[C@@H]2SCC[C@H](NC(=O)[C@H](C)NC)C(=O)N2[C@@H]1C(=O)N[C@@H]1CCCc2ccccc21 (some centres unmarked) [Compound 27, hydrochloride]
Experimental Value: B (B=26-50% viability)
//
Compound: C=CCC1(CC=C)C[C@@H]2SCC[C@H](NC(=O)[C@H](C)NC)C(=O)N2[C@@H]1C(=O)N[C@@H]1CCCc2ccccc21 [Compound 31, hydrochloride]
Experimental Value: B (B=26-50% viability)
//
Compound: C=CCC1C[C@@H]2SCC[C@H](NC(=O)[C@H](C)NC)C(=O)N2[C@@H]1C(=O)N[C@@H]1CCCc2ccccc21 (some centres unmarked) [Compound 30, hydrochloride]
Experimental Value: B (B=26-50% viability)

* * *

- Tested on: OVCAR-4
- Assay Procedure: Cell viability (CellTiterGlo), OVCAR-4
- Type: cell-based
- Measurement Parameters: Homo sapiens
pIC50: −log10 of the molar value. Counter-ions that a name gives are not always drawn.
Measured Parameter: pIC50

The examples below pair each entry with its known result.
Compound: C=CCC1(CC=C)C[C@@H]2OCC[C@H](NC(=O)[C@H](C)NC)C(=O)N2[C@@H]1C(=O)N[C@@H]1CCCc2ccccc21 [Compound 14, hydrochloride]
Study Target: OVCAR-4
pIC50: 6.00 to 7.00
//
Compound: CN[C@@H](C)C(=O)N[C@H]1CCOC2CC3(CC=CC3)C(C(=O)N[C@@H]3CCCc4ccccc43)N2C1=O (stereo partly drawn) [Compound 81, hydrochloride]
Study Target: OVCAR-4
pIC50: 7.00 to 8.00
//
Compound: C=CCC1C[C@@H]2OCC[C@H](NC(=O)[C@H](C)NC)C(=O)N2[C@@H]1C(=O)N[C@@H]1CCCc2ccccc21 (stereo partly drawn) [Compound 15, hydrochloride]
Study Target: OVCAR-4
pIC50: < 6.00
//
Compound: C=CCC1(CC=C)C[C@@H]2SCC[C@H](NC(=O)[C@H](C)NC)C(=O)N2[C@@H]1C(=O)N[C@@H]1CCCc2ccccc21 [Compound 29, hydrochloride]
Study Target: OVCAR-4
pIC50: < 6.00
//
Compound: C=CCC1C[C@@H]2SCC[C@H](NC(=O)[C@H](C)NC)C(=O)N2[C@@H]1C(=O)N[C@@H]1CCCc2ccccc21 (stereo partly drawn) [Compound 32, hydrochloride]
Study Target: OVCAR-4
pIC50: < 6.00

Let us move to another entry and its pIC50.
Task: Quick one: pIC50 of CN[C@@H](C)C(=O)N[C@H]1CCS[C@H]2CC(C)(C)C(C(=O)N[C@@H]3CCCc4ccccc43)N2C1=O (stereo partly drawn) [Compound A, hydrochloride] ?
Output: 8.00 to 9.00

* * *

- Test system: OVCAR-4
- Assay Procedure: Cell viability (CellTiterGlo), OVCAR-4
- Type: cell-based
- Measurement Parameters: Homo sapiens
pIC50: −log10 of the molar value. Where a name gives a salt, the structure may show the parent alone.
Measured Parameter: pIC50

Compound: CN[C@@H](C)C(=O)N[C@H]1CCO[C@H]2CC(C)(C)[C@@H](CN[C@@H]3CCCc4ccccc43)N2C1=O [Compound 56, dihydrochloride]
pIC50: < 6.00
//
Compound: CN[C@@H](C)C(=O)N[C@H]1CC(CSc2ccccc2)O[C@H]2CC(C)(C)C(C(=O)N[C@@H]3CCCc4ccccc43)N2C1=O (mixture of isomers) [Compound 75, hydrochloride]
pIC50: 7.00 to 8.00
//
Compound: CCC1(CC)C[C@@H]2SCC[C@H](NC(=O)[C@H](C)NC)C(=O)N2C1C(=O)N[C@@H]1CCCc2ccccc21 (mixture of isomers) [Compound 38, hydrochloride]
pIC50: 7.00 to 8.00
//
Compound: CN[C@@H](C)C(=O)N[C@H]1CCS[C@H]2CC(CCc3ccccc3)[C@@H](C(=O)N[C@@H]3CCCc4ccccc43)N2C1=O (some centres unmarked) [Compound 44, hydrochloride]
pIC50: < 6.00

Now turn to the next compound.
Task: // returns reported pIC50 for input CN[C@@H](C)C(=O)N[C@H]1CCS[C@H]2CC(CCc3ccccc3)(CCc3ccccc3)[C@@H](C(=O)N[C@@H]3CCCc4ccccc43)N2C1=O [Compound 45, hydrochloride]
Output: < 6.00

* * *

Item-by-item account of IC50
- Tested on: OVCAR-4
- Assay Procedure: Cell viability (CellTiterGlo), OVCAR-4
- Type: cell-based
- Measurement Parameters: Homo sapiens
- Description: Candidate compounds are tested in 384-well plates for effects on cell viability in the presence or absence of an appropriate conventional anticancer drug. Cell viability is indirectly monitored in the first instance using CellTiterGlo (Promega Corp., Madison, WI) (Table D). To determine if cell death is apoptotic, the induction of caspase activity is assessed utilizing the CaspaseGlo Assay system (Promega Corp., Madison, WI) (Table E). […]
Where a name gives a salt, the structure may show the parent alone.

Molecule: CC[C@H](NC)C(=O)N[C@H]1CCS[C@H]2CC(C)(C)[C@@H](C(=O)N[C@@H]3CCCc4ccccc43)N2C1=O.Cl [Compound 79, hydrochloride]
Experimental Value: 10 to 100 nM
//
Molecule: CN[C@@H](C)C(=O)N[C@H]1Cc2cc(OC)ccc2[C@H]2CC(C)(C)[C@@H](C(=O)N[C@@H]3CCCc4ccccc43)N2C1=O [Compound 9, hydrochloride]
Experimental Value: 100 to 1000 nM
//
Molecule: CN[C@@H](C)C(=O)N[C@H]1CCO[C@H]2CC(C)(C)[C@@H](C(=O)N[C@@H]3CCOc4ccccc43)N2C1=O [Compound 74, hydrochloride]
Experimental Value: 100 to 1000 nM
//
Molecule: CN[C@@H](C)C(=O)N[C@H]1Cc2ccc(OC)cc2[C@H]2CC(C)(C)[C@@H](C(=O)N[C@@H]3CCCc4ccccc43)N2C1=O [Compound 11, hydrochloride]
Experimental Value: > 1000 nM
//
Molecule: CN[C@@H](C)C(=O)N[C@@H]1C(=O)N2[C@H](CC(C)(C)[C@H]2C(=O)N[C@@H]2CCCc3ccccc32)OC2CCCCC21 (single isomer, unassigned) [Compound 65, hydrochloride]
Experimental Value: 10 to 100 nM

Task: Quick check: IC50 on OVCAR-4, item CN[C@@H](C)C(=O)N[C@H]1CCS(=O)(=O)[C@H]2CC(C)(C)[C@@H](C(=O)N[C@@H]3CCCc4ccccc43)N2C1=O [Compound 1, hydrochloride] ?
Output: > 1000 nM

Task: Request: CN[C@@H](C)C(=O)N[C@H]1CCOC2CC3(CCCC3)C(C(=O)N[C@@H]3CCCc4ccccc43)N2C1=O (stereo partly shown) [Compound 82, hydrochloride]
Output: 1 to 10 nM

* * *

Quick reference: IC50 of the listed items.
- System: OVCAR-4
- Assay Procedure: Cell viability (CellTiterGlo), OVCAR-4
- Assay type: cell-based
- Measurement Parameters: Homo sapiens
Where a name gives a salt, the structure may show the parent alone.

Compound: CN[C@@H](C)C(=O)N[C@H]1CCOC2CC(C)(C)[C@@H](C(=O)Nc3ccccc3-c3ncccn3)N2C1=O (stereo partly drawn) [Compound 55, hydrochloride]
Study Target: OVCAR-4
Experimental Value: > 1000 nM

Compound: CCC1(CC)C[C@@H]2OCC[C@H](NC(=O)[C@H](C)NC)C(=O)N2[C@@H]1C(=O)N[C@@H]1CCCc2ccccc21 [Compound 21, hydrochloride]
Study Target: OVCAR-4
Experimental Value: 100 to 1000 nM

Task: Fill in the blank: the reported IC50 of CN[C@@H](C)C(=O)N[C@H]1CCS[C@H]2CC3(CCCC3)[C@@H](C(=O)N[C@@H]3CCCc4ccccc43)N2C1=O [Compound 80, hydrochloride] is ____.
Output: 1 to 10 nM
